What follows is a record of IC50 for human cathepsin F (Homo sapiens, UniProt Q9UBX1).
Answers are plain numbers, in nM.

| compound_string | quantity_unit | IC50 |
| --- | --- | --- |
| CC(C)(C)c1nc(-c2ccc(N3CCS(=O)(=O)CC3)cc2)c([C@@H]2CCCC[C@H]2C(=O)NC2(C#N)CC2)o1 | nM | 681 |
| N#CC1(NC(=O)[C@@H]2CCCC[C@H]2c2oc(C(F)(F)c3ccccc3)nc2-c2ccc(N3CCS(=O)(=O)CC3)cc2)CC1 | nM | 70 |

Okay, now this compound:
Query: Give its IC50 value. Item: N#CC1(NC(=O)[C@@H]2CC(Cl)(Cl)CC[C@H]2c2oc(C(F)(F)C(F)(F)F)nc2-c2ccc(C(=O)N3CCOCC3)cc2)CC1
Reply: 259

Data origin, for the record: patent US9458181B2
